Collected IC50 values appear next to each entry.
measured_target: recombinant human c-MET kinase enzyme domain (Homo sapiens, UniProt P08581)
Construct: Recombinant c-Met kinase domain (amino acids 960-1390); His (N); SF21 is named only for the alternative format)
Sequence (P08581 960-1390): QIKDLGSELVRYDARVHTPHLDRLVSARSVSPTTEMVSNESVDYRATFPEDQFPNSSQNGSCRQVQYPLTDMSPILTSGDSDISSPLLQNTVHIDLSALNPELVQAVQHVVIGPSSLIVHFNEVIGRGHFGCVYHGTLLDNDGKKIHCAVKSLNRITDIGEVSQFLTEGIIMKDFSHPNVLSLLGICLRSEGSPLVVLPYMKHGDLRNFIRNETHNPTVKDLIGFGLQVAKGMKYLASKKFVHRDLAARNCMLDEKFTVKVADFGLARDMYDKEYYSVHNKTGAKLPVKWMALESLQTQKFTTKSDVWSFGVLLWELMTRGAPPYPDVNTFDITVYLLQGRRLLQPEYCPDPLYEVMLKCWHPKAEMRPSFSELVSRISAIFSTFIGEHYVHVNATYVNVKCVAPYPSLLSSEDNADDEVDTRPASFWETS
assay_explanation: c-MET receptor tyrosine kinase Homogeneous Time Resolved Fluorescence assay (HTRF)
measurement_parameters: Biological Example 1 and/or Biological Example 2

molecule	measured_target	IC50
COC(=O)c1cccc(C2C(C#N)=C(C)NC(c3cccc([N+](=O)[O-])c3)=C2C#N)c1 (stereo not drawn)	recombinant human c-MET kinase enzyme domain (Homo sapiens, UniProt P08581)	500 to 2500 nM
CC1=C(C#N)C(c2cccc(C(=O)NCCCn3ccnc3)c2)C(C#N)=C(c2cccc(N)c2)N1 (stereo not drawn)	recombinant human c-MET kinase enzyme domain (Homo sapiens, UniProt P08581)	100 to 500 nM
CC1=C(C#N)C(c2ccc3[nH]nc(-c4ccc(N5CCN(C)CC5)cc4)c3c2)C(C#N)=C(C)N1	recombinant human c-MET kinase enzyme domain (Homo sapiens, UniProt P08581)	< 100 nM
CC1=C(C#N)C(c2cccc(C(=O)NCCCn3ccnc3)n2)C(C#N)=C(C)N1	recombinant human c-MET kinase enzyme domain (Homo sapiens, UniProt P08581)	100 to 500 nM
COC(=O)c1ccc(C2=C(C#N)C(c3ccc4[nH]ncc4c3)C(C#N)=C(C)N2)cc1 (stereo not drawn)	recombinant human c-MET kinase enzyme domain (Homo sapiens, UniProt P08581)	< 100 nM
CC1=C(C#N)C(c2ccc3[nH]nc(NCc4ccc(C(=O)O)cc4)c3c2)C(C#N)=C(C)N1	recombinant human c-MET kinase enzyme domain (Homo sapiens, UniProt P08581)	< 100 nM
CCN1C(C)=C(C#N)C(c2ccc3[nH]nc(N)c3c2)C(C#N)=C1C	recombinant human c-MET kinase enzyme domain (Homo sapiens, UniProt P08581)	< 100 nM
CC1=C(C#N)C(c2ccc3[nH]nc(CN4CCOCC4)c3c2)C(C#N)=C(C)N1	recombinant human c-MET kinase enzyme domain (Homo sapiens, UniProt P08581)	500 to 2500 nM
CC1=C(C#N)C(c2ccc3[nH]nc(-c4ccc(N5CCN(CCO)CC5)cc4)c3c2)C(C#N)=C(C)N1	recombinant human c-MET kinase enzyme domain (Homo sapiens, UniProt P08581)	< 100 nM

* * *

Collected IC50 values appear next to each entry.
measured_target: recombinant human c-MET kinase enzyme domain (Homo sapiens)
Construct: Recombinant c-Met kinase domain (amino acids 960-1390); His (N); SF21 is named only for the alternative format)
assay_explanation: c-MET receptor tyrosine kinase Homogeneous Time Resolved Fluorescence assay (HTRF)
measurement_parameters: Biological Example 1 and/or Biological Example 2
Where a name gives a salt, the structure may show the parent alone.

compound	IC50
CC1=C(C#N)C(c2ccc3[nH]nc(C(=O)N(C)C)c3c2)C(C#N)=C(C)N1 [114.1, TFA salt]	< 100 nM
CC1=C(C#N)C(c2ccc3[nH]ncc3c2)C(C#N)=C(c2cccnc2)N1 (stereo not drawn) [compound 266]	< 100 nM
CC1=C(C#N)C(c2ccc3[nH]nc(CNc4cccnc4)c3c2)C(C#N)=C(C)N1 [compound 91]	< 100 nM
